Measured growth of individual entries
Tested on: SK-MEL-28 melanoma
Experiment: NCI-60 one-dose screen, 48 h (100 = growth as untreated, 0 = no growth, -100 = all killed)
Details: 10 µM unless noted
The panel holds about 83,000 compounds, 20% with a hit somewhere; the sample as a whole holds those more often.
Form entry: value (%) — number only.

Check out these entries, answers already filled in.
O=S(=O)(Nc1cc(Sc2nc3ccccc3s2)c(O)c2ccccc12)c1ccc2ccccc2c1
116
COc1cc(C=Nc2oc(-c3ccccc3)c(-c3ccccc3)c2C#N)cc(CN2CCCC2)c1O
112
N#Cc1ccc(/C=C/c2cn(-c3ccccc3)nc2-c2cccc([N+](=O)[O-])c2)cc1
66.3
Cc1ccc2cnc(N)c(C#Cc3cc(C(=O)Nc4ccc(CN5CCN(C)CC5)c(C(F)(F)F)c4)cnc3C)c2c1
-84.9
CC1=Nc2cnc(Nc3ccc(N4CCCCC4)cc3)nc2Nc2ccccc21
84.7
c1cc(OCCCCCOc2cccc(-c3nc4ccccc4[nH]3)c2)cc(-c2nc3ccccc3[nH]2)c1
18.7

*Q* Can you share its growth? I mean this molecule: CCNC(=O)N1CCc2c(Br)c3c(c(OC)c2C1Cc1ccc(OC)cc1)OCO3 (centres undefined)
*A* 55.9

*Q* Requested read-out: growth. Entry: CCCCC#Cc1c(I)n(C2OC(CO[Si](C)(C)C(C)(C)C)C3OC(C)(C)OC32)c(=O)n(C(=O)c2ccccc2)c1=O (centres undefined)
*A* -42.9

*Q* Quick one: growth of O=C(/C=C/c1ccccc1Cl)c1cccc(OCCCCOc2cccc(C(=O)/C=C/c3ccccc3Cl)c2)c1 ?
*A* 99.7

====

Test system: SN12C renal
Test: NCI-60 one-dose screen, 48 h (100 = growth as untreated, 0 = no growth, -100 = all killed)
Settings: 10 µM unless noted
Compounds without any hit were thinned out: in the full panel of roughly 83,000, 20% have a hit.
Everything with growth lower than 50% is class 0; everything else, including exactly 50%, is class 1.

CSc1ccc2c3c(n(CCCn4ccnc4)c(=O)c2c1)-c1ccccc1C3=O
class 0

Kindly consider the entry below.
*Q* Hi, just wondering whether CNCCCNc1nc2ccccc2c2c(=O)c3cc(Cl)ccc3sc12 shows growth of 50% or higher.
*A* class 0

====

Tested on: MDA-MB-435 melanoma
Experiment: NCI-60 one-dose screen, 48 h
Settings: 10 µM unless noted
The panel holds about 83,000 compounds, 20% with a hit somewhere; the sample as a whole holds those more often. Calls of active or inactive are those of the source. Rule for the calls: active = growth percent below 10; inactive = the rest.
Your response should consist of one outcome taken from active, inactive

CC[C@H](Nc1nc(N)nc(C)c1C#N)c1nc2cccc(CN(C)c3ncc(C(=O)NO)cn3)c2c(=O)n1-c1ccccc1
active

*Q* What is the recorded call for this compound in the test? COC(=O)[C@@]1(C)CC[C@]2(C)CC[C@]3(C)C4=CC=C5C(=CC(=O)C(O)=C5C)[C@]4(C)[C@@H](O)C[C@@]3(C)[C@@H]2C1
*A* inactive

*Q* Recorded test call requested for O=C1/C(=C/c2ccccn2)SC(=S)N1N1CCOCC1
*A* inactive

*Q* Please indicate how the test categorized C=C(C)[C@@H]1CC[C@]2(C)[C@H](C=CC3=C4C[C@@](C)(CO)CC[C@]4(C)CC[C@]32C)[C@@]1(C)CCCN .
*A* active
